Test: self-splicing fitness, log relative to wild type (ln ratio); higher = more splicing; Tetrahymena group I intron in knt gene, E. coli kanamycin selection, DiMSum; sequences stand for … in CUCUCU…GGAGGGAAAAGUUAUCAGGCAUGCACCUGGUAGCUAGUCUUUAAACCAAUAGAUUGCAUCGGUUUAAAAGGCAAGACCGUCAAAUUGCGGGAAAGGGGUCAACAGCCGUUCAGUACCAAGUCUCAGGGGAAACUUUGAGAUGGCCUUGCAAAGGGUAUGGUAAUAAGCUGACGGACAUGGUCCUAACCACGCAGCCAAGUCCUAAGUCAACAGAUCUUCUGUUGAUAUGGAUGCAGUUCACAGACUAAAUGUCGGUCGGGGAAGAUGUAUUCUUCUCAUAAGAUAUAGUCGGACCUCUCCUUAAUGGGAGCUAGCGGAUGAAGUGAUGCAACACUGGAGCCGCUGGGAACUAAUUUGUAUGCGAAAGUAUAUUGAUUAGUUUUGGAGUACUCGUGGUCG;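 further: selection with 25 µg/mL kanamycin versus none on LB agar overnight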
Conditions: 37 °C
Classify on self-splicing fitness (ln) using low bracket: < -2; middle bracket: ≥ -2 and < -1; high bracket: ≥ -1

The examples below pair each entry with its known result.
[
  {
    "sequence-string": "GUUAAGCAAUAUUACGGGAG",
    "category-label": "middle bracket"
  },
  {
    "sequence-string": "GAGUAGCAAUAUUACGCGGU",
    "category-label": "low bracket"
  },
  {
    "sequence-string": "UGGAAGCAAUAUUACGGCGU",
    "category-label": "high bracket"
  },
  {
    "sequence-string": "CCCCAGCAAUAUUACGCUCA",
    "category-label": "high bracket"
  }
]

Bin? `CAAAAGCAAUAUUACGCAAC`
low bracket

Bin? `UGCAAGCAAUAUUACGUAAG`
low bracket

Bin? `UCAAAGCAAUAUUACGUUAA`
high bracket

Bin? `AGAAAGCAAUAUUACGUAAC`
low bracket

Bin? `GUGAAGCAAUAUUACGCCAA`
middle bracket

Bin? `UCCAAGCAAUAUUACGGAUA`
middle bracket

====

Experiment: self-splicing fitness, log relative to wild type (ln ratio); higher = more splicing; Tetrahymena group I intron in knt gene, E. coli kanamycin selection, DiMSum; sequences stand for … in CUCUCU…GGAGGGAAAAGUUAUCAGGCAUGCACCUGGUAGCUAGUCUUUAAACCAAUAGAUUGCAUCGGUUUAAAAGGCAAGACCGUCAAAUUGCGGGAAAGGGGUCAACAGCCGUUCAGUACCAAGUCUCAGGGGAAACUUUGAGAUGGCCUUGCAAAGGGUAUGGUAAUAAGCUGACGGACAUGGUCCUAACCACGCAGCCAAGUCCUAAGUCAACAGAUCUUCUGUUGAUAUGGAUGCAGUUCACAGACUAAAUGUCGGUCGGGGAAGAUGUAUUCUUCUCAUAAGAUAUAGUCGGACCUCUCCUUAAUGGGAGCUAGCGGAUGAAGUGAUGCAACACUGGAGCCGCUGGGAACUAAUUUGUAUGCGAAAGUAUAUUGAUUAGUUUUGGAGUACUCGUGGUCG
Conditions: 30 °C
Classify on self-splicing fitness (ln) using lo = under -3, mid = from -3 up to -2, hi = -2 and over

Bin? `UGCCAGCAAUAUUACGCGCC`
hi

Bin? `GUGUAGCAAUAUUACGGUAC`
mid

Bin? `UAAUAGCAAUAUUACGUUUU`
lo

Bin? `AAGAAGCAAUAUUACGUUUA`
hi

Bin? `CAUAAGCAAUAUUACGUUCA`
lo

Bin? `UUUAAGCAAUAUUACGAGCA`
hi

Bin? `GACCAGCAAUAUUACGCGCC`
hi

Bin? `CUCUAGCAAUAUUACGGACA`
mid

Bin? `ACACAGCAAUAUUACGCACU`
hi

Bin? `AUACAGCAAUAUUACGCGGG`
lo

Bin? `ACCAAGCAAUAUUACGAUCG`
hi

Bin? `CUGGAGCAAUAUUACGGGAA`
mid

Bin? `AUCGAGCAAUAUUACGCGGA`
mid

Bin? `GCACAGCAAUAUUACGUGCU`
lo

Bin? `AGCUAGCAAUAUUACGUCAA`
lo

====

Recorded self-splicing fitness (ln) for the following sequences
Experiment: self-splicing fitness, log relative to wild type (ln ratio); higher = more splicing; Tetrahymena group I intron in knt gene, E. coli kanamycin selection, DiMSum; sequences stand for … in CUCUCU…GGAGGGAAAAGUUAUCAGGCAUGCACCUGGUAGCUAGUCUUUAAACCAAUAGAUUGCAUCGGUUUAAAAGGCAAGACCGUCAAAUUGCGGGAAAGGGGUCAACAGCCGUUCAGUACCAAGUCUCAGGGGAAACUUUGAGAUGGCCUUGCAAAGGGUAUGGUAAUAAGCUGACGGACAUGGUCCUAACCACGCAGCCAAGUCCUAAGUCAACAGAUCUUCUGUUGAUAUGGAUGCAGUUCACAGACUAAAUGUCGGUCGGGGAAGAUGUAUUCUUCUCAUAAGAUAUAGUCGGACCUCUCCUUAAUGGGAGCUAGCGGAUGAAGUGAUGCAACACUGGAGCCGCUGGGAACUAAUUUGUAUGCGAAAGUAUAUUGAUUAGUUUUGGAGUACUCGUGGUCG
Conditions: 30 °C
Number only, no unit.

Please report the recorded self-splicing fitness (ln) for `GAUCAGCAAUAUUACGAAUG` .
-1.15

====

Test: self-splicing fitness, log relative to wild type (ln ratio); higher = more splicing; Tetrahymena group I intron in knt gene, E. coli kanamycin selection, DiMSum; sequences stand for … in CUCUCU…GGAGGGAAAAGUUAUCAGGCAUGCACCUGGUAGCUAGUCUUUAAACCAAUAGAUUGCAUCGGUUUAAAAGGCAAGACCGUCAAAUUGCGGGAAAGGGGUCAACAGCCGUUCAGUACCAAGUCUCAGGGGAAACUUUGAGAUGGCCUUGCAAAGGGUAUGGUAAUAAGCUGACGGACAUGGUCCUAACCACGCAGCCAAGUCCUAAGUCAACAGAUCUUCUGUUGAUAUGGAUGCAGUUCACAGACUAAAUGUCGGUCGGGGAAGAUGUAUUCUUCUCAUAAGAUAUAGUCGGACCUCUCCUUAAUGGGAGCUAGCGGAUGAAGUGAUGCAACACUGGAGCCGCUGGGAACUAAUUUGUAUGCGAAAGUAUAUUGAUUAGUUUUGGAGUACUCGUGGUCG
Conditions: 30 °C
Label rule, in plain words: self-splicing fitness (ln) of -2 and up is y, under -2 is n.

The examples below pair each entry with its known result.
[
  {
    "sequence-string": "AGGUAGCAAUAUUACGUGUU",
    "category-label": "n"
  },
  {
    "sequence-string": "AAUCAGCAAUAUUACGGCCU",
    "category-label": "y"
  },
  {
    "sequence-string": "UGGCAGCAAUAUUACGGUUG",
    "category-label": "y"
  },
  {
    "sequence-string": "GGCCAGCAAUAUUACGCUAG",
    "category-label": "n"
  },
  {
    "sequence-string": "AUCUAGCAAUAUUACGCAAG",
    "category-label": "y"
  },
  {
    "sequence-string": "UGGAAGCAAUAUUACGGUGA",
    "category-label": "y"
  },
  {
    "sequence-string": "UAGAAGCAAUAUUACGUCGC",
    "category-label": "n"
  },
  {
    "sequence-string": "UUAAAGCAAUAUUACGAGGC",
    "category-label": "n"
  },
  {
    "sequence-string": "GGUGAGCAAUAUUACGCUAA",
    "category-label": "n"
  },
  {
    "sequence-string": "CAUGAGCAAUAUUACGAUAA",
    "category-label": "n"
  }
]

Would you say `UUCCAGCAAUAUUACGAUGA` shows self-splicing fitness (ln) at minimum -2?
y

Would you say `UUUAAGCAAUAUUACGUGAC` shows self-splicing fitness (ln) at minimum -2?
n

Would you say `GAAAAGCAAUAUUACGCGCC` shows self-splicing fitness (ln) at minimum -2?
n

Would you say `UGAGAGCAAUAUUACGUUGC` shows self-splicing fitness (ln) at minimum -2?
n

====

Recorded self-splicing fitness (ln) for the following sequences
Assay: self-splicing fitness, log relative to wild type (ln ratio); higher = more splicing; Tetrahymena group I intron in knt gene, E. coli kanamycin selection, DiMSum; sequences stand for … in CUCUCU…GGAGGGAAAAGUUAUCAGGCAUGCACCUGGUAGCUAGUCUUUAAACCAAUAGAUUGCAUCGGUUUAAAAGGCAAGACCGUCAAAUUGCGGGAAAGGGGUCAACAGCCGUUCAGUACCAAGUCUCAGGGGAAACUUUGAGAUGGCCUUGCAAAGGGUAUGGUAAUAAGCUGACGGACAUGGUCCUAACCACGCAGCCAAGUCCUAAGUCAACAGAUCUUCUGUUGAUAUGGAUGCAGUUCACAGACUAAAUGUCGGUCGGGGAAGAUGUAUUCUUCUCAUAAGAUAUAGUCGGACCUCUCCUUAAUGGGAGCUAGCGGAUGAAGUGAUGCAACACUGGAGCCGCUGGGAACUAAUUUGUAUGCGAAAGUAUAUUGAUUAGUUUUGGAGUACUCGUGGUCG
Details: 30 °C
Number only, no unit.

[
  {
    "sequence-string": "GACUAGCAAUAUUACGGCAU",
    "value-reported": -0.26
  },
  {
    "sequence-string": "AGAGAGCAAUAUUACGGUAA",
    "value-reported": -2.95
  },
  {
    "sequence-string": "CCGAAGCAAUAUUACGCGAC",
    "value-reported": -3.1
  }
]

Please report the recorded self-splicing fitness (ln) for `UUGAAGCAAUAUUACGGAGU` .
-2.51

Please report the recorded self-splicing fitness (ln) for `AAGAAGCAAUAUUACGAUAA` .
-1.11

Please report the recorded self-splicing fitness (ln) for `ACUUAGCAAUAUUACGUCCC` .
-0.637

These measurements were taken from the supplement of paper PMC7877785.
